Origin of values: PubChem BioAssay (EPA / NIEHS)

- protocol description: CEETOX_H295R_OHPROG: CeeTox H295R High-throughput Steroidogenesis Assay for OH-Progesterone (OHPROG) (AID 2283435)
- experimental setup: actives raise or lower the signal
Activity calls are given as the source filed them. Rule for the calls: active = hit-call score of the fitted dose curve at least 0.9, where 1 is the maximum; inactive = score below 0.9.
Select the correct class. Options are active, inactive and nothing else.

Short answer needed: outcome of this test for N#Cc1ccc(N(CC(N)=O)CC(F)(F)F)cc1C(F)(F)F ?
inactive

Hi team, can someone confirm the assay call for CC#Cc1cc(C)nc(Nc2ccccc2)n1 ?
active

State the result this test recorded for CCC(C)(CC)c1cc(NC(=O)c2c(OC)cccc2OC)on1 .
inactive

Just curious, what result did CCNc1nc(NC(C)C)nc(SC)n1 get here?
inactive

Please indicate how the test categorized CCSC(=O)N(CC)C1CCCCC1 .
inactive

// param item: Nc1ccc(-c2ccc(N)cc2)cc1 ; yields the recorded call
active

Name the outcome recorded for Cc1cc2c3c(c1)C(c1ccccc1)=N[C@@H](NC(=O)c1ccncc1)C(=O)N3CC2 in the assay.
active

Test call, this compound: CCC(=O)O[C@H]1CC[C@H]2[C@@H]3CCC4=CC(=O)CC[C@]4(C)[C@H]3CC[C@]12C
active

Can you look up the reported call for Cc1cc(O)ccc1Cl for me?
active

Per the records of this test, what outcome belongs to C[C@]12CCC(=O)C=C1CC[C@@H]1[C@@H]2CC[C@]2(C)C(=O)CC[C@@H]12 ?
active

Dear colleague, could you share the recorded outcome for O=C(NC(=O)c1c(F)cccc1F)Nc1cc(Cl)c(OC(F)(F)C(F)F)c(Cl)c1 when you have a moment?
inactive

Would you mind telling me which call this test gave CCOCCOC(C)=O ?
inactive

Recorded test call requested for Clc1ccc(C(c2ccccc2Cl)C(Cl)(Cl)Cl)cc1 (centres undefined)
inactive

For NS(=O)(=O)C(F)(F)C(F)(F)C(F)(F)C(F)(F)C(F)(F)C(F)(F)C(F)(F)C(F)(F)F , which call appears in the assay record?
inactive

---

- Read-out: Tumor necrosis factor (Homo sapiens)
- protocol description: BSK_LPS_TNFa: BioMAP Diversity Plus: LPS Assay for Tumour Necrosis Factor alpha (TNFa) Biomarker Activity (AID 2283085)
- experimental setup: primary human HUVEC with PBMC; actives raise or lower the signal
The source made the active and inactive calls. The calls were made as follows: active = hit-call score of the fitted dose curve at least 0.9, where 1 is the maximum; inactive = score below 0.9.
Can you answer with just one of these options? active, inactive

Could you please tell me the result logged for O=C(NC(=O)c1cc(F)c(F)cc1Cl)Nc1cc(F)ccc1N1CCC(C(=O)O)CC1 in this assay?
active

Returns: the outcome recorded for CC1=C2C[C@H]3[C@@H](CC=C4C[C@@H](O)CC[C@@]43C)[C@@H]2CC[C@]12O[C@@H]1C[C@H](C)CN[C@H]1[C@H]2C in this assay.
inactive

Could you check what this test reported for Cc1ccccc1CO[C@@H]1C[C@@]2(C(C)C)CC[C@]1(C)O2 ?
inactive

I would be grateful if you could indicate the recorded call for CN(C)CCO .
inactive

Tell me the recorded outcome of this test for CCCCCCCCOC(=O)c1ccccc1C(=O)OCCCCCCCC .
inactive

In this assay, the call recorded for CCOP(=S)(OCC)SCSC(C)(C)C was what?
active

---

- Read-out: Interleukin-1 alpha (IL1a), IL1A (gene 3552)
- protocol description: BSK_KF3CT_IL1a: BioMAP Diversity Plus: KF3CT Assay for Interleukin-1 alpha (IL1a) Biomarker Activity (AID 2283070)
- experimental setup: primary human keratinocytes with fibroblasts; actives raise or lower the signal
Activity calls are given as the source filed them. The calls were made as follows: active = hit-call score of the fitted dose curve at least 0.9, where 1 is the maximum; inactive = score below 0.9.
Choose the fitting class; nothing outside 1 for active, 0 for inactive is accepted.

Short answer needed: outcome of this test for O=C(O)C(F)(F)C(F)(F)C(F)(F)C(F)(F)C(F)(F)F ?
0

Which result was noted for this compound in the test: CCC(C)(CC)c1cc(NC(=O)c2c(OC)cccc2OC)on1
0

I would be grateful if you could indicate the recorded call for Clc1ccc(C(Cl)(Cl)Cl)cc1 .
0

What did this assay record as the result for C[C@]12CCC(=O)C=C1CC[C@@H]1[C@@H]2CC[C@]2(C)C(=O)CC[C@@H]12 ?
0

Short answer needed: outcome of this test for CCC(C)(c1ccc(O)cc1)c1ccc(O)cc1 ?
0

Hello, I am checking results. What call was entered for CCNc1nc(NC(C)C)nc(SC)n1 ?
0

Check the results log: what was the call for CCSC(=O)N(CC)C1CCCCC1 ?
0

Test call for this compound, please: Oc1ccc(Cl)cc1Cl
0

Hi team, can someone confirm the assay call for CN(C)CCO ?
0

Test call for this compound, please: Nn1cnnc1
0

Outcome? Cc1cc(O)ccc1Cl
0

Returns: the outcome recorded for C=CC(=O)NCNC(=O)C=C in this assay.
0

For Cc1cc(-c2ccc(N)c(C)c2)ccc1N , which call appears in the assay record?
0

Field: outcome | Entry: CCOP(=S)(OCC)SCSC(C)(C)C
0

// param item: Cc1ccccc1[N+](=O)[O-] ; yields the recorded call
0

Recorded call for Oc1ccc(C(c2ccc(O)cc2)(C(F)(F)F)C(F)(F)F)cc1 ?
1

Given O=C(NC(=O)c1c(F)cccc1F)Nc1cc(Cl)c(OC(F)(F)C(F)F)c(Cl)c1 , state the outcome it received in this test.
0

Short answer needed: outcome of this test for CC1=C2C[C@H]3[C@@H](CC=C4C[C@@H](O)CC[C@@]43C)[C@@H]2CC[C@]12O[C@@H]1C[C@H](C)CN[C@H]1[C@H]2C ?
0

Which outcome was assigned to Cc1ccccc1O in this test?
0

Recorded test call requested for CC(C)(O)C(=O)Nc1ccc([N+](=O)[O-])c(C(F)(F)F)c1
0

Called result for O=C(N[C@H]1CN2CCC1CC2)c1cc2ccoc2cn1
0

Hey, what did the test say about CCCCCCCCCc1ccc(O)cc1 ?
1

Could you kindly confirm the outcome this assay logged for ClC(Cl)=C(c1ccc(Cl)cc1)c1ccc(Cl)cc1 ?
1

Lab log entry: C[C@]12CCC(=O)C=C1CC[C@@H]1[C@@H]2CC[C@@]2(C)[C@H]1CC[C@]2(C)O — outcome as called in the assay?
0

Any idea what this test logged for ClC1=C(Cl)[C@]2(Cl)[C@@H]3[C@H]4C[C@H]([C@@H]5O[C@H]45)[C@@H]3[C@@]1(Cl)C2(Cl)Cl ?
0

What is the recorded call for this compound in the test? CC#Cc1cc(C)nc(Nc2ccccc2)n1
0

Please state the recorded outcome for this compound: CC(C)C(=O)OCC(C)(C)C(OC(=O)C(C)C)C(C)C (stereo not drawn)
0

Record request — test call for c1ccc(-c2ccccc2)cc1
0

What outcome does the record of this test show for CN(C)c1nc(=O)n(C2CCCCC2)c(=O)n1C ?
0

Status in this test for CCCCCCOC(=O)c1ccccc1C(=O)OCCCCCC ?
0

For COS(=O)(=O)OC , which call appears in the assay record?
0

Short answer needed: outcome of this test for Cc1cccc([N+](=O)[O-])c1 ?
0

Returns: the outcome recorded for CO/C=C(/C(=O)OC)c1ccccc1COc1cccc(C(F)(F)F)n1 in this assay.
0

Test call for this compound, please: CC(C)(c1ccccc1)c1ccc(O)cc1
1

Status in this test for Cc1ccccc1CO[C@@H]1C[C@@]2(C(C)C)CC[C@]1(C)O2 ?
0

Any idea what this test logged for COc1ccc(O)c(C(C)(C)C)c1 ?
0

Hi team, can someone confirm the assay call for CCCN(CCC)N=O ?
0

Recorded call for c1cc2ccc3cccc4ccc(c1)c2c34 ?
0
